Biological target: T1, human amylin-3 (a) receptor (human, UniProt P30988 25-474; O60896 24-148)
T1 sequence (looked up) 1: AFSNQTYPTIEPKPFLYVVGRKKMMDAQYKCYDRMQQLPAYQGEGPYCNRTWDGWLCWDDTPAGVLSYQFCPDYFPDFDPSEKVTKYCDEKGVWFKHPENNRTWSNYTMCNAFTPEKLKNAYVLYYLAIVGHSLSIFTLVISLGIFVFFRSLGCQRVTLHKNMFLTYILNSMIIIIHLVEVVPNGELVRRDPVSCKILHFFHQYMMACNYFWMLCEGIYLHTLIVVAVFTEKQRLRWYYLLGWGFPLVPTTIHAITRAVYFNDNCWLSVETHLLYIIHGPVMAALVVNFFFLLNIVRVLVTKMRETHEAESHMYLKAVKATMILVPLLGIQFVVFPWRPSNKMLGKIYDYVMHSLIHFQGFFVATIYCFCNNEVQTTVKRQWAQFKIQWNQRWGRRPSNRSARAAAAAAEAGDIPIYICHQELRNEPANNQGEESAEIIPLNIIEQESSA
T1 sequence (looked up) 2: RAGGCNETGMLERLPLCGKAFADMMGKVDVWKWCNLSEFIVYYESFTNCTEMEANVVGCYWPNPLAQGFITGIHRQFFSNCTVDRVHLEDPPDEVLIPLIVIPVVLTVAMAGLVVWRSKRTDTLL
Experiment: cell-based or functional assay
Starred links: 1 amine or outer side, 2 acyl side, 3 side chain; linkers in the order of their positions; H or OH if unused. Non-standard residues stand in square brackets, D forms with d. Groups on a side chain read outwards from the residue. *: point of attachment. C18 diacid = O=C(O)CCCCCCCCCCCCCCCCC(=O)*; C16 diacid = O=C(O)CCCCCCCCCCCCCCC(=O)*; γGlu = O=C(O)[C@H](CCC(=O)[*:2])N[*:1]; AEEA = NCCOCCOCC(=O)O; Aib = CC(C)(N)C(=O)O
Would you kindly list Human AmyR3 potency [EC50 (pM)] for each of these binders?
Response body: numeric value in pM, unit text excluded.

Lab note: measured Human AmyR3 potency [EC50 (pM)] of Compound 0639 (peptide) peptide: H[Aib]EGTFTSDVSSYLEEQAARK([AEEA-AEEA-γGlu-C18 diacid])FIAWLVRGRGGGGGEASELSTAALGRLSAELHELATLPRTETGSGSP-NH2 was 4.6

Lab note: measured Human AmyR3 potency [EC50 (pM)] of Compound 0105 (peptide) peptide: H[Aib]EGTFTSDVSSYLEEQAARK([AEEA-AEEA-γGlu-C16 diacid])FIEWLVRGK([AEEA-AEEA-γGlu-C16 diacid])GEGQEPGGASELSTAALGRLSAELHELATLPRTETGSGSP-NH2 was 30.8
